Entry source: PubChem BioAssay (NCATS)

Test: Stat Signaling Pathway (AID 446);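 also: ME-180 cervical cancer cells given 40 pM IL-6 alongside compound; SIE-controlled beta-lactamase reporter measured as 460/530 nm FRET emission ratio; % is scaled to controls: 0 for no effect and ±100 for the full control effect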
Conditions: ME-180 SIE beta-lactamase reporter, IL-6 stimulated, 5 h; at 7.69 µM (top of the series) unless noted
Records with an inconclusive call do not appear. Activity calls are given as the source filed them. Calls follow the shape of the dose curve; as a rule, active = well fitted curve in either direction with a large enough effect (not every such curve was filed as active); inconclusive = small, poorly fitted or top-dose-only effect, or another doubt; inactive = flat fitted curve, though single readings scatter.
The following compounds are shown together with reported activity, negative = inhibition values.

[
  {
    "chemical string": "N#Cc1cccc(NC(=O)N2CCCC3(CCN(C(=O)c4cnccn4)CC3)C2)c1",
    "value type": "activity, negative = inhibition",
    "experimental value": "0.635% (inactive)"
  },
  {
    "chemical string": "COc1ccc(Oc2ncc3ncc(=O)n(CCc4ccccc4)c3n2)cc1",
    "value type": "activity, negative = inhibition",
    "experimental value": "3.46% (inactive)"
  },
  {
    "chemical string": "CN[C@@H](CC(C)C)C(=O)N[C@@H]1C(=O)N[C@H](CC(N)=O)C(=O)N[C@@H]2C(=O)N[C@H]3C(=O)N[C@H](C(=O)N[C@H](C(=O)O)c4cc(O)cc(O)c4-c4cc3ccc4O)[C@H](O)c3ccc(c(Cl)c3)Oc3cc2cc(c3O[C@H]2O[C@@H](CO)[C@@H](O)[C@@H](O)[C@@H]2O[C@@H]2C[C@](C)(N)[C@H](O)[C@H](C)O2)Oc2ccc(cc2Cl)[C@@H]1O",
    "value type": "activity, negative = inhibition",
    "experimental value": "7.22% [at 17.2 µM] (inactive)"
  },
  {
    "chemical string": "Cc1noc(C)c1C(=O)N1CCC2(CCCN(c3ccncc3)C2)CC1",
    "value type": "activity, negative = inhibition",
    "experimental value": "8.27% (inactive)"
  },
  {
    "chemical string": "CCNc1ncc2nc(-c3ccc(F)cc3)c(=O)n(CCC#N)c2n1",
    "value type": "activity, negative = inhibition",
    "experimental value": "16.7% (inactive)"
  }
]

activity, negative = inhibition measured on Fc1ccc(Nc2ccnc(-c3ccc4c(c3)OCO4)n2)cc1 = -6.41% (inactive)

activity, negative = inhibition measured on COc1ccc2[nH]cc(CCNc3ccnc(-c4cccc(C#N)c4)n3)c2c1 = -8.5% (inactive)

====

System: NanoLuc luciferase (engineered Oplophorus gracilirostris luciferase)
Experiment: Biochemical NLuc saturation counterscreen for small molecule modulators of PMP22 gene expression - Nano-Glo assay (AID 1508638); also: % is scaled to controls: 0 for no effect and ±100 for the full control effect
Conditions: Secreted NLuc enzyme (filtered S16 cell medium), Nano-Glo luminescence; series mostly up to 57.5 µM
The list shows a part of the results. Records with an inconclusive call do not appear. Activity calls are given as the source filed them. Calls come from the whole dose curve; as a rule, active = well fitted inhibition curve with a large enough effect; inconclusive = small, poorly fitted or top-dose-only effect; inactive = flat fitted curve, though single readings scatter.
value type: outcome

[
  {
    "chemical string": "Cc1cc(OCC(=O)NCC2(N(C)C)CCCCC2)cc(C)c1Cl",
    "experimental value": "inactive"
  },
  {
    "chemical string": "CCCS(=O)(=O)c1ncc(Cl)c(C(=O)Nc2scc(-c3ccccc3)c2C(=O)OCC)n1",
    "experimental value": "inactive"
  },
  {
    "chemical string": "CCOCCCNC(=O)c1c(NC(=O)c2nc(SC)ncc2Cl)sc2c1CCCC2",
    "experimental value": "inactive"
  }
]

====

Assay: Stat Signaling Pathway (AID 446);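 also: ME-180 cervical cancer cells given 40 pM IL-6 alongside compound; SIE-controlled beta-lactamase reporter measured as 460/530 nm FRET emission ratio; % is scaled to controls: 0 for no effect and ±100 for the full control effect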
Conditions: ME-180 (cervical carcinoma) SIE beta-lactamase reporter, IL-6 stimulated, 5 h; at 7.69 µM (top of the series) unless noted
Records with an inconclusive call do not appear.
The following compounds are shown together with reported activity, negative = inhibition values.
The answer is to be given in %; state only the numeric part.

Below, each entry is followed by its recorded activity, negative = inhibition result.
[
  {
    "chemical string": "COCCn1c(=O)c(-c2cc(F)cc(F)c2)nc2cnc(Oc3cccc(Cl)c3)nc21",
    "activity, negative = inhibition, %": 24.9
  },
  {
    "chemical string": "COc1cccc(-c2cncnc2NCc2cnc(C)cn2)c1",
    "activity, negative = inhibition, %": 7.19
  },
  {
    "chemical string": "COCCn1c(=O)c(-c2ccc(Cl)cc2)nc2cncnc21",
    "activity, negative = inhibition, %": 1.43
  },
  {
    "chemical string": "Cn1c(=O)c(-c2cccc(Cl)c2)nc2cncnc21",
    "activity, negative = inhibition, %": -10.2
  },
  {
    "chemical string": "COc1ccccc1CNc1nc(-c2cccc(C#N)c2)nc2ccccc12",
    "activity, negative = inhibition, %": -22
  }
]

Proceeding to the next compound to report its activity, negative = inhibition.
activity, negative = inhibition measured on COCCNc1nc(-c2ccccc2C(F)(F)F)nc2ccccc12 = 15.8

====

Experiment: qHTS Assay for Lipid Storage Modulators (AID 1519); also: % is scaled to controls: 0 for no effect and ±100 for the full control effect
Settings: Drosophila S3 cells, BODIPY lipid droplet/cell ratio, laser cytometry; at 57.5 µM (top of the series); cells loaded with oleic acid
Records with an inconclusive call do not appear.
value type: activity change, negative = inhibition (%)
The answer is to be given in %; state only the numeric part.

[
  {
    "chemical string": "COCC(=O)N1CCC2(CCCN(Cc3ccccc3OC)C2)CC1",
    "value type": "activity change, negative = inhibition",
    "units text": "%",
    "experimental value": -6.35
  }
]

activity change, negative = inhibition measured on O=c1c(-c2ccc(F)cc2)nc2cnc(N3CCNCC3)nc2n1Cc1cccs1 = 1.91

activity change, negative = inhibition measured on N#CCCn1c(=O)c(-c2cccs2)nc2cnc(N3CCNCC3)nc21 = -0.055

activity change, negative = inhibition measured on O=S(=O)(c1ccccc1)N1CCC2(CC1)CN(c1ccccn1)C2 = -4.43

activity change, negative = inhibition measured on O=C(Nc1cccc(F)c1)N1CC[C@@]2(CCCN(C(=O)c3cc(C(F)(F)F)cc(C(F)(F)F)c3)C2)C1 = 5.77

activity change, negative = inhibition measured on COc1ccc(C(=O)N2CCC3(CCCN(C(c4ccccc4)c4ccccc4)C3)CC2)cc1 = -5.74

activity change, negative = inhibition measured on CN(C)C(=O)c1ccc(-c2ccc3ncnc(NCc4cccs4)c3c2)cc1 = 6.27

activity change, negative = inhibition measured on COc1ccccc1CN1CCCC2(CCN(C(=O)c3c(C)noc3C)CC2)C1 = 1.7

activity change, negative = inhibition measured on Cc1cnc(CNc2ccnc(-c3ccc(N(C)C)cc3)n2)cn1 = 8.28

activity change, negative = inhibition measured on Cn1cccc1C(=O)N1CCC2(CCCN(C(=O)Nc3ccccc3)C2)CC1 = 7.87

====

Tested on: JCK
Experiment: qHTS profiling for inhibitors of Plasmodium falciparum proliferation (AID 504749); also: nearly all actives have a fitted effect of over 60% in size
Details: P. falciparum in erythrocytes, SYBR Green DNA, 72 h; series mostly up to 12.8 µM
Records with an inconclusive call do not appear. Activity calls are given as the source filed them. The call rests on the fitted dose curve; in most records, active means well fitted inhibition curve with a large enough effect; inconclusive means small, poorly fitted or top-dose-only effect; inactive means flat fitted curve, though single readings scatter.
Response enum: active, inactive

[
  {
    "molecule": "O=C(Cc1cccs1)NC1C(=O)N2C(C(=O)[O-])=C(C[n+]3ccccc3)CSC12 (configuration not stated)",
    "target or system": "JCK",
    "class name": "inactive"
  }
]

Could you kindly confirm the outcome this assay logged for CO[C@H]1C[C@@H](O[C@@H]2[C@H](C)[C@H](O[C@@H]3O[C@@H](C)C[C@@H](N(C)C)[C@@H]3O)[C@H](C)C[C@]3(CO3)C(=O)[C@H](C)[C@H](O)[C@H](C)[C@H](C)OC(=O)[C@@H]2C)O[C@@H](C)[C@H]1O ? inactive

Could you kindly confirm the outcome this assay logged for CC[C@@]12CCCN3CCc4c(n(c5ccccc45)C(=O)C1)[C@H]32 ? inactive

Could you kindly confirm the outcome this assay logged for C[C@@H](CCc1ccccc1)NC[C@H](O)c1ccc(O)c(C(N)=O)c1 ? inactive

Could you kindly confirm the outcome this assay logged for CCN(CC)CCC[C@H](C)Nc1ccnc2cc(Cl)ccc12 ? active

====

Target: Cytochrome P450 2C19 (Homo sapiens)
Assay: qHTS Assay for Inhibitors and Substrates of Cytochrome P450 2C19 (AID 899); also: nearly all actives have a fitted effect of over 60% in size
Conditions: recombinant CYP2C19, luciferin-H EGE luminescence; series mostly up to 57.1 µM
Inconclusive results are not listed. The source made the active and inactive calls. Calls come from the whole dose curve; as a rule, active = well fitted inhibition curve with a large enough effect; inconclusive = small, poorly fitted or top-dose-only effect; inactive = no such curve, though single readings can be large or run the other way.
Response enum: active, inactive

# example entries with known answers
[
  {
    "chemical string": "O=c1c(-c2cccs2)nc2cncnc2n1Cc1ccc(F)cc1",
    "class name": "active"
  },
  {
    "chemical string": "Cc1noc(C)c1-c1ccc2ncnc(NCc3cccs3)c2c1",
    "class name": "active"
  },
  {
    "chemical string": "FC(F)(F)c1ccccc1-c1nccc(NCc2ccccc2)n1",
    "class name": "active"
  },
  {
    "chemical string": "c1ncc(-c2ccc3c(c2)OCO3)c(NCCc2cnc[nH]2)n1",
    "class name": "active"
  },
  {
    "chemical string": "Cc1noc(C)c1-c1cncnc1N1CCN(C)CC1",
    "class name": "inactive"
  }
]

Could you kindly confirm the outcome this assay logged for CCCN1C[C@H](CSC)C[C@H]2c3cccc4[nH]cc(c34)C[C@@H]21 ? inactive

Could you kindly confirm the outcome this assay logged for COc1ccccc1CNc1ncncc1-c1ccccc1C ? active

Could you kindly confirm the outcome this assay logged for N#C/C(=C\c1ccc(O)c(O)c1)C(=O)OCCc1cccs1 ? active

Could you kindly confirm the outcome this assay logged for Cc1cccc(CNc2ccnc(-c3cccc(C#N)c3)n2)c1 ? active

Could you kindly confirm the outcome this assay logged for COc1ccc(CNc2nc(-c3c(C)noc3C)nc3ccccc23)c(OC)c1 ? active

Could you kindly confirm the outcome this assay logged for O=C(c1ccco1)N1CCC2(CCCN(c3ccncc3)C2)CC1 ? inactive
